- protocol text: Clearance in rat microsomes
- Format: ADME, Microsome

{"structure notation": "Cn1c(NCC(=O)c2cccc(Cl)c2)nc(-c2ccncc2)cc1=O", "CL (mL/min/mg)": 0.262}
{"structure notation": "Cn1c(NCC(=O)c2cccc(C#N)c2)nc(-c2ccncc2)cc1=O", "CL (mL/min/mg)": 0.133}
{"structure notation": "Cn1c(NCC(=O)c2cccc(F)c2)nc(-c2ccncc2)cc1=O", "CL (mL/min/mg)": 0.207}
{"structure notation": "Cn1c(NCC(=O)c2ccccc2)nc(-c2ccncc2)cc1=O", "CL (mL/min/mg)": 0.172}
{"structure notation": "Cc1cccc(C(=O)CNc2nc(-c3ccncc3)cc(=O)n2C)c1", "CL (mL/min/mg)": 0.262}
{"structure notation": "Cn1c(NCC(=O)c2ccc(F)cc2)nc(-c2ccncc2)cc1=O", "CL (mL/min/mg)": 0.166}
{"structure notation": "Cn1c(NCC(=O)c2ccccc2F)nc(-c2ccncc2)cc1=O", "CL (mL/min/mg)": 0.158}

---

Reported values of pIC50 for individual entries
- protocol text: Inhibition of CYP1A (unknown origin)
- Type: ADME, Homo sapiens
pIC50: −log10 of the molar value.

{"structure notation": "Cc1cccc(C(=O)CNc2nc(-c3ccncc3)cc(=O)n2C)c1", "qualifying sign": "=", "pIC50": 5.66}
{"structure notation": "Cn1c(NCC(=O)c2ccc(F)cc2)nc(-c2ccncc2)cc1=O", "qualifying sign": "=", "pIC50": 4.96}
{"structure notation": "Cn1c(NCC(=O)c2ccccc2)nc(-c2ccncc2)cc1=O", "qualifying sign": "=", "pIC50": 5.24}
{"structure notation": "Cn1c(NCC(=O)c2cccc(C#N)c2)nc(-c2ccncc2)cc1=O", "qualifying sign": "<", "pIC50": 4.27}
{"structure notation": "Cn1c(NCC(=O)c2cccc(Cl)c2)nc(-c2ccncc2)cc1=O", "qualifying sign": "=", "pIC50": 6.17}
{"structure notation": "Cn1c(NCC(=O)c2ccccc2F)nc(-c2ccncc2)cc1=O", "qualifying sign": "=", "pIC50": 5.42}
{"structure notation": "Cn1c(NCC(=O)c2cccc(F)c2)nc(-c2ccncc2)cc1=O", "qualifying sign": "=", "pIC50": 5.38}

---

- protocol text: Permeability co-efficient in Wistar rat brain at 30 mg/kg, ip measured at 0.25 hrs
- Assay type: ADME, organism-based
- Set-up: dose 30 mg/kg, route intraperitoneal

{"structure notation": "Cn1c(NCC(=O)c2ccccc2)nc(-c2ccncc2)cc1=O", "Kp at 0.25 h": 1.15}

---

- assay target: Glycogen synthase kinase-3 beta (Homo sapiens)
- Sequence (P49841 whole entry): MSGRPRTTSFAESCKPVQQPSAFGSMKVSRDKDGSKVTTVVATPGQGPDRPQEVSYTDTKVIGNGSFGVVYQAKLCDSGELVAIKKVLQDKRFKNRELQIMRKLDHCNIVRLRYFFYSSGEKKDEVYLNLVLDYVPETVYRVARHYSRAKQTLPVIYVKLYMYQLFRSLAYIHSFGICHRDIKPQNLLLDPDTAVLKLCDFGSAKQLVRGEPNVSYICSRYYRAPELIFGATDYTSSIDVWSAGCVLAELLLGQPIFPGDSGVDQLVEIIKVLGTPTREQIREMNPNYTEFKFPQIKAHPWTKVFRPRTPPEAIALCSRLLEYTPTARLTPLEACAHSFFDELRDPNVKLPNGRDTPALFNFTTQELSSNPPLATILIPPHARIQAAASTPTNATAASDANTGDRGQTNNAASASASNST
- protocol text: Inhibition of human recombinant GSK3beta using prephosphorylated GS1 peptide as substrate after 1 hr by liquid scintillation spectrometry
Labelling field: enter Condition met if recorded IC50 is less than 40 nM. Enter Condition not met if it equals or exceeds that cut-off.

{"structure notation": "CCCCc1nc(-c2ccncc2)cc(=O)[nH]1", "category label": "Condition not met"}
{"structure notation": "Cn1c(NCC(=O)c2ccccc2F)nc(-c2ccncc2)cc1=O", "category label": "Condition met"}
{"structure notation": "O=c1cc(-c2ccncc2)nc(Cc2ccccc2)[nH]1", "category label": "Condition not met"}
{"structure notation": "Cn1c(NCC(=O)c2ccccc2)nc(-c2ccncc2)cc1=O", "category label": "Condition met"}
{"structure notation": "Cn1c(CCCc2ccccc2)nc(-c2ccncc2)cc1=O", "category label": "Condition not met"}
{"structure notation": "Cn1c(NCC(=O)c2cccc(C#N)c2)nc(-c2ccncc2)cc1=O", "category label": "Condition met"}
{"structure notation": "CCn1c(CCCc2ccccc2)nc(-c2ccncc2)cc1=O", "category label": "Condition not met"}
{"structure notation": "O=c1cc(-c2ccncc2)nc(CCCc2ccccc2)n1Cc1ccccc1", "category label": "Condition not met"}
{"structure notation": "O=c1cc(-c2ccncc2)nc(CCc2ccccc2)[nH]1", "category label": "Condition not met"}
{"structure notation": "Cn1c(N(CCCCCN)CCc2ccccc2)nc(-c2ccncc2)cc1=O", "category label": "Condition not met"}
{"structure notation": "Cn1c(NCC(=O)c2cccc(F)c2)nc(-c2ccncc2)cc1=O", "category label": "Condition met"}
